src = the RNAGym collection of RNA variant scans (doi:10.7554/elife.80360)

B1: CPEB3 Ribozyme (parent)
chain: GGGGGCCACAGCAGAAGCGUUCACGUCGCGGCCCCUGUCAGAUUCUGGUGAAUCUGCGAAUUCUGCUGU

variants of: B1; assay: self-cleavage, relative activity (ratio to wild type); higher = more cleavage; co-transcriptional
Listed here are variants together with their documented self-cleavage.

# Input sequence, self-cleavage
records = [
    ("GGGGGCCACAGCAGAAGCGUUCACGUCGCGGCCCCUGUAAGAUUCUGGUGAAUCUUCGAAUUCUGCUGU [C39A G56U]", 0.984),
    ("GGGGGCCACAGCAGAAGCGUUCACGUCGCGGCCCCUGUCUGACUCUGGUGAAUCUGCGAAUUCUGCUGU [A40U U43C]", 0.485),
    ("GGGGGCCACAGCAGUAGCGUUCACGUCGCGGCCCCAGUCAGAUUCUGGUGAAUCUGCGAAUUCUGCUGU [A15U U36A]", 0.194),
    ("GGGGGCCACAGCAGAAGCGUUCACGUCGCGGCCCCUGUCAGAUUCUGGUGAAGCUGCGAAGUCUGCUGU [U53G U61G]", 0.681),
    ("GGGGGCCACAGCAGAAGCGUUCACGUCGCGGCCCCUGUGAGAUUCUGGUGAAUCUGCGAAUUAUGCUGU [C39G C63A]", 0.494),
    ("GGGGGCCACAACAGAAGCGUUCACGUCGCGGCCCCUGUCAGAUUCUGGUGAAUCUGCGAAUCCUGCUGU [G11A U62C]", 0.391),
    ("GGGGGCCACAGCAGAAGCGUUCACGUCGCGGCCCCUGUCAGAUUGUGGUGAAUCUGCGAAUUCUGCUGC [C45G U69C]", 1.05),
    ("GGGGGCCACAGCAGAAGCGUUCACGUCGCGGCCCUUGUCAGAUUCUGGUGAAUCUGCGAAUUUUGCUGU [C35U C63U]", 0.954),
    ("GGGGGCCACAGCAGAAGCGUUCACGUCGCGGCCCCUGUCAGAUUCUCGUGAAUCUGCGAAUUCUGCUGC [G47C U69C]", 1.06),
    ("GGGGGCCACAGCAGAAGCGUUCACGUCGCGGCCCCUGUCAGAUUCGGGUGAAUCUGCGUAUUCUGCUGU [U46G A59U]", 0.842),
    ("GGGGGCCACAGCAGAAGCGUUCACGUCGCGGCCCCUGUCAGAUUAUGGUGAAUCGGCGAAUUCUGCUGU [C45A U55G]", 0.475),
]
